Percent Effect for assorted compounds
# System: Plasmodium falciparum
# Experiment: Calibr Malaria Delayed Death Assay SOP
# Assay type: functional, organism-based
# Design: scale not given: in the data most compounds retested in dose-response had high values
# Run Conditions: concentration 4.99e-06 (unit not given; other assays of the set use mol/L)
The campaign covered roughly 38,000 compounds. About 1,200 (3.2%) showed an effect of 50% or more. The median lay at about -58%. The entries come from a sample that favours strong results as a whole.
Express your answer in %, writing the number without its unit.

>  <Compound>
OCc1cn([C@@H]2c3ccccc3C3(CCNCC3)[C@H]2O)nn1

>  <Percent Effect [%]>
-123.5

$$$$
>  <Compound>
Cc1c(C(C)NC2CSCCSC2)cnn1-c1ccc(F)cc1F (stereo unspecified)

>  <Percent Effect [%]>
-8.599

$$$$
>  <Compound>
CS(=O)(=O)N1C[C@H]2CN(CC3CC3)C(=O)[C@H]2C1

>  <Percent Effect [%]>
-17.38

$$$$
>  <Compound>
Cc1c(C(C)NCC2CCCC2)cnn1-c1ccc(F)cc1F (stereo unspecified)

>  <Percent Effect [%]>
70.86

$$$$
>  <Compound>
Cc1c(C(C)NC2CCOCC2)cnn1-c1ccc(F)cc1F (stereo unspecified)

>  <Percent Effect [%]>
-4.766

$$$$

The value of Percent Effect measured for the compound COCc1cn([C@@H]2c3ccccc3C3(CCNCC3)[C@H]2O)nn1 turned out to be -27.47

----------
# Test system: Plasmodium falciparum
# Experiment: Calibr Malaria Delayed Death Assay SOP
# Type: functional, organism-based
# Set-up: scale not given: in the data most compounds retested in dose-response had high values
# Run Conditions: concentration 4.99e-06 (unit not given; other assays of the set use mol/L)
The whole screen tested about 38,000 compounds, of which about 1,200 (3.2%) showed an effect of 50% or more. The median lay at about -58%. The sample holds strong results, similar compounds and a random draw of the others, so the mix is not that of the screen.
Percent Effect for assorted compounds
Express your answer in %, writing the number without its unit.

// solved cases for Percent Effect follow
>  <Compound>
COc1cccc(OC)c1CN1CC(=O)N(c2ccc(C)cc2)CC1C (stereo not given)

>  <Percent Effect [%]>
75.45

$$$$
>  <Compound>
Cc1ccc(CNC2CC3(CCN(CCO)CC3)c3ccccc32)s1.O=C(O)C(F)(F)F.O=C(O)C(F)(F)F (stereo not given)

>  <Percent Effect [%]>
84.71

$$$$
>  <Compound>
O=C(O)c1cc(/C=C/c2ccccc2)ncn1

>  <Percent Effect [%]>
-169

$$$$
>  <Compound>
Cc1ccc2c(c1)C(N(C)C)CC21CCN(CCO)CC1.O=C(O)C(F)(F)F.O=C(O)C(F)(F)F (stereo not given)

>  <Percent Effect [%]>
74.01

$$$$
>  <Compound>
CCOC1CC2(CCN(CCO)CC2)c2ccc(C)cc21 (stereo not given)

>  <Percent Effect [%]>
16.18

$$$$
>  <Compound>
COc1ccc(F)c(CN2CC(=O)N(c3ccccc3C)CC2C)c1 (stereo not given)

>  <Percent Effect [%]>
6.943

$$$$
>  <Compound>
CCCN(CCc1ccccc1)C(=O)c1ccccc1NCC(=O)O

>  <Percent Effect [%]>
-32.98

$$$$
>  <Compound>
COc1ccc(CN2CC(=O)N(c3ccc(C)cc3)CC2C)cc1O (stereo not given)

>  <Percent Effect [%]>
-98.66

$$$$
>  <Compound>
Cn1cncc1CNC1CC2(CCN(CC3CC3)CC2)c2ccccc21.O=C(O)C(F)(F)F.O=C(O)C(F)(F)F (stereo not given)

>  <Percent Effect [%]>
-88.17

$$$$

Observed Percent Effect, Plasmodium falciparum, COc1cc(CN2CC(=O)N(c3ccc(C)cc3)CC2C)cc(OC)c1 (stereo not given) : 43.44
